- Tested on: MS2 coat protein
- TEST_DETAILS: apparent Kd, MS2 coat protein; higher = weaker binding; RNA-MaP array; FMN 200 µM where present
- DETAILS: designed as: OFF switch for flavin mononucleotide; no ligand
VALUE_KIND: apparent Kd (nM)
Quick note: give the figure in nM, leave out the unit.

Record excerpt, results attached:
# BIOPOLYMER_SEQUENCE, UOM, apparent Kd
measured = [
    ("UAUGGUAAAGUCAGGAUAUACGUGCAGUUUUCUGGGUAGAAGGGACAUGAGGAUCACCCAUGUAUGGUAGUGUU", "nM", 118),
    ("CGAUAACAUAGUUAUCCGUAACGUACAUGAGGAUCACCCAUGUAGGAUAUGUUACUAAACUAGUAACAGAAGGACAUGAGUAUU", "nM", 54.9),
    ("ACCAUUUACUAAUCCUCUAUACAUGAGGAUCACCCAUGUUAUGAGGAUAUCAUCGUUCGCCGCGUUGAGAAGGCAUAGCAUUCG", "nM", 16.3),
]

Field request: apparent Kd | item: CGAUGAGGUGUGAGGAUAUCGUGUUCGAAAGAACGUGAGAAGGCACAUGAGGAUCACCCAUGUCAACCUUGUCG
17.3

Field request: apparent Kd | item: UUAAUUAAUUAAUUCGUCAUUACAUGAGGAUCACCCAUGUAUAAGGAUAUGCAGUGGAAUACACUGCAGAAGGUAUACAAGACG
18.4

Field request: apparent Kd | item: AAGCUGGUAGGAUAUGCUAGGGCGACUAAUGCGCCGAUAGUACAUGAGGAUCACCCAUGUAGAAGGGCCAGAAA
24.3

Field request: apparent Kd | item: GGAUAGGACAGAGGAUAUACGUGCUAGAGAUACUAGCAAAAUUUCCGCACAUGAGGAUCACCCAUGUAGAAGGCUGUCCUAUCG
5.82

Field request: apparent Kd | item: CAGUACUGAGGAUAUACAUGAGGAUCACCCAUGUGAAUAGCAUAGGAAACUAUGCUAUGUAGAAGGCAGUACUG
14.1

Field request: apparent Kd | item: AUACCACGAGGAUAUCGUCUAUUUCACAUGAGGAUCACCCAUGUUAUCUUUGUUUUGUUUCGAGAAGGCGUGUUUU
30.9

Field request: apparent Kd | item: CAGGACAGGAAACGGAGCGGCCAACAUGAGGAUCACCCAUGUAAGGAUAUGCCUACUAAAAGUAGGCAGAAGGUACAGAAGGCA
29.9

Field request: apparent Kd | item: ACAUGAGGAUGAGGAUAUUCAUACAUGAGGAUAGAAGAAGGCAUACAUGAGGAUCACCCAUGUAUACACAUGAGGAUCCCUUAU
81.1

Field request: apparent Kd | item: GUCACUAGAGGAUAUACAAUGGUAUAUGAUCCUAGAGACAUACAUGAGGAUCACCCAUGUAGAAGGCUAGUAUU
64.6

Field request: apparent Kd | item: CAGGACAGAGGAUAUACAUAGAUACAGAUUCAUGUAGAACUACAUGAGGAUCACCCAUGUAGAAGGCUGACCUG
28.5

Field request: apparent Kd | item: CUUUAGUGAGGAUAUGUGGCUUCGAUCGUGAGAUCGAGGCUACAGAAGGCACAUGAGGAUCACCCAUGUACCUU
14.3

Field request: apparent Kd | item: UUGUUAGGGAGAGGAUAUUGACAUGAGGAUCACCCAUGUAUUUGGGAGUGUUUACUGAAUUCUUACGAGAAGGCUUACGAAAUC
264

Field request: apparent Kd | item: GUCCUCUCUGAGGAUAUUAUCCGGUCCGAUUGAUAAGAAGGCAGUACAUGAGGAUCACCCAUGUGGGUUGUCUG
62.6

Field request: apparent Kd | item: UACGGACAUGAGGAUCACCCAUGUGAGGAUAUCGGUACCGAUAGCAUAAUAUAAUCGGCGAGAAGGCACAGCGU
32.7

Field request: apparent Kd | item: UGGUCCUGAGGAUAUGCACCUCAAGUUAUCGUUCACCAUGCACAUGAGGAUCACCCAUGUAGAAGGUAGGAUCG
18.8

Field request: apparent Kd | item: ACUAAGAGAGGAUAUACUAACAAACCUCAAACAUACAUCAAACAUGAGGAUCACCCAUGUAGAAGGCUCAAACU
30.5

Field request: apparent Kd | item: GGAUAGGACAGAGGAUAUACGUGCUAGAGAUACUAGCAAAAUUUCCUCACAUGAGGAUCACCCAUGUAGAAGGCAGUCCUAUCG
4.95

Field request: apparent Kd | item: UUUUCACAUGAGGAUCACCCAUGUGAGGAUAUGGUUUCGCUGGCCGUAGCCAGUGGAACCAGAAGGCGCGUGAU
60.7

Field request: apparent Kd | item: UCGUAUAAGGGCAUUACACAUGAGGAUCACCCAUGUACGUUAGAGGAUAUGCAUUCCAGUUGAACGUAGAAGGCUAGAGAAGGG
132

Field request: apparent Kd | item: UGAUCGAAAGAUCAUAGAUUCUGGCAGGAUAUGCAGUAGUUUUAAUUUACAUGAGGAUCACCCAUGUAGAAGGGCUAGAGUCUA
6.33

Field request: apparent Kd | item: GAGAAGUGAGGAUAUGCUGCUCGUCACUUGCGUGAUGAGUAGCAGAAGGCACAUGAGGAUCACCCAUGUAAAGG
133

Just for reference, the EternaBench riboswitch data is where these values come from.
